target: panel of more than 300 wild-type and mutant kinases (313 kinase panel) (Homo sapiens, UniProt Q02750); assay: Kinase profiling in a biochemical assay panel (mobility shift assays and ELISA), %-inhibition at 1 μM; selectivity entropy; conditions: kinase MAP2K1; compound at 1 μM
Entries and their measured %-inhibition of MAP2K1 follow.

- Compound: "C[C@@H](Oc1cc(-c2cnn(C3CCNCC3)c2)cnc1N)c1c(Cl)ccc(F)c1Cl [crizotinib]"
  Units of measure: "%"
  %-inhibition of MAP2K1: 0.819
- Compound: "O=S(=O)(c1cccc2cnccc12)N1CCCNCC1 [fasudil]"
  Units of measure: "%"
  %-inhibition of MAP2K1: 5.3
- Compound: "CCN(CC)CCNC(=O)c1c(C)[nH]c(/C=C2\\C(=O)Nc3ccc(F)cc32)c1C [sunitinib]"
  Units of measure: "%"
  %-inhibition of MAP2K1: 89
- Compound: "Cc1cn(-c2cc(NC(=O)c3ccc(C)c(Nc4nccc(-c5cccnc5)n4)c3)cc(C(F)(F)F)c2)cn1 [nilotinib]"
  Units of measure: "%"
  %-inhibition of MAP2K1: -8
